# credit: ChEMBL document CHEMBL1961873

# Measured target: Sphingosine kinase 2 (Homo sapiens);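 further: values reported as mean percent inhibition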
# Test context: at 0.1 µM
Here the recorded inhibition is given for each entry.
Outcome measure: inhibition (%)

>>> df
                            structure_string  measurement
 0  COc1cccc(-n2ncc3c(N/N=C/c4ccc(C(=O)NCCN(C)C)cc4)ncnc32)c1         0.23
 1  CC(C)c1ccc(-c2cc(-c3c[nH]nc3-c3ccccn3)ccn2)cc1        -0.31
 2  CS(=O)(=O)Nc1ccc(-c2cc(-c3ccccc3)cc(C(N)=O)c2N)cc1        -0.04
 3  Fc1ccc(Nc2nccc(-c3c(-c4ccc(C(F)(F)F)cc4)nn4ncccc34)n2)cc1F        -0.99
 4     COc1cccc(Nc2nccc(-c3cnn4ncccc34)n2)c1         0.58
 5  COC(=O)Nc1nc2cc(Oc3ccc(NC(=O)Nc4ccccc4)cc3)ccc2[nH]1        -0.28
 6    c1cnn2ncc(-c3ccnc(NCCCN4CCOCC4)n3)c2c1         2.35
 7  CS(=O)(=O)CCNCc1ccc(-c2ccc3ncnc(Nc4ccc(OCc5cccc(C(F)(F)F)c5)cc4)c3c2)o1          0.1
 8  NS(=O)(=O)c1ccc(N/N=C2\C(=O)Nc3ccc(C(=O)NCc4ccncc4)cc32)cc1          2.9
 9  NC(=O)c1ccc2c(-c3ccnc(NCCCO)n3)c(-c3ccc(F)cc3)nn2c1         0.78
10      Cc1cc(O)cc(C)c1/C=C/c1cncc(C(N)=O)c1         0.32

====

# Measured target: Platelet-derived growth factor receptor alpha (Homo sapiens);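 further: values are mean percent inhibition of PDGFRA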
# Test context: at 1 µM
Label Met for high-side inhibition (at or above 10%) and Not met for low-side inhibition (below it).

In [3]: df
Out[3]:
                                    compound  group_label
 0  Cc1c2ccc(N(C)c3ccnc(Nc4cccc(S(N)(=O)=O)c4)n3)cc2nn1C          Met
 1  CC1=C(C(=O)Nc2ccc3[nH]ncc3c2)C(c2ccc(F)cc2)N=C(c2ccc(C(F)(F)F)nc2)N1 (stereo not given)      Not met
 2  COc1ccc(-c2nn3ncccc3c2-c2ccnc(Nc3ccc(F)c(F)c3)n2)cc1          Met
 3  CCN1CCC(C(=O)Nc2n[nH]c3nnc(-c4cccc(F)c4F)cc23)CC1      Not met
 4  CN1CCC(n2cnc(-c3ccc(F)cc3)c2-c2ccnc(NCCO)n2)CC1          Met
 5  O=C(O[C@H]1CN[C@H](C#Cc2cc3ncnc(Nc4ccc(OCc5cccc(F)c5)c(Cl)c4)c3s2)C1)N1CCOCC1          Met
 6  CS(=O)(=O)Nc1ccc(-c2ccc3c(NC(=O)C4CC4)n[nH]c3c2)cc1          Met
 7  O=C(O[C@H]1CN[C@H](C#Cc2cc3ncnc(Nc4ccc5c(ccn5Cc5cc(F)ccc5F)c4)c3s2)C1)N1CCOCC1          Met
 8                 Cn1c(-c2nonc2N)nc2cnccc21      Not met
 9  COC(=O)Nc1nc2ccc(Oc3ccc(NC(=O)Nc4cc(C(F)(F)F)ccc4F)cc3)cc2s1          Met
10       COc1cc(Nc2ncc(-c3ccccc3)o2)cc(OC)c1          Met
11  CNC(=O)c1sc(-n2cnc3cc(OC)c(OC)cc32)cc1OCc1ccccc1C(F)(F)F          Met
12     COc1cccc(Nc2nccc(-c3cnn4ncccc34)n2)c1          Met
13  NS(=O)(=O)c1ccc(N/N=C2\C(=O)Nc3cccc(CCc4ccncc4)c32)cc1          Met
14  CN(c1ccc(NC(=O)NCCN2CCOCC2)cc1)c1ccnc(Nc2ccc(CS(C)(=O)=O)cc2)n1          Met
15  NS(=O)(=O)c1cccc(N/C=C2\C(=O)Nc3ccccc32)c1          Met
16  COc1cc(N2CCN(C(C)C)CC2)ccc1Nc1nc(Nc2cccc3ncccc23)c2cc[nH]c2n1          Met
17  COc1cccc(-n2ncc3c(N/N=C/c4ccc(C(=O)NCCN(C)C)cc4)ncnc32)c1          Met

====

# Measured target: Serine/threonine-protein kinase Nek1 (Homo sapiens) (UniProt Q96PY6);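 further: mean percent inhibition of NEK1 kinase, from the GSK PKIS (published kinase inhibitor set) screening panel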
# Sequence (Q96PY6 whole entry): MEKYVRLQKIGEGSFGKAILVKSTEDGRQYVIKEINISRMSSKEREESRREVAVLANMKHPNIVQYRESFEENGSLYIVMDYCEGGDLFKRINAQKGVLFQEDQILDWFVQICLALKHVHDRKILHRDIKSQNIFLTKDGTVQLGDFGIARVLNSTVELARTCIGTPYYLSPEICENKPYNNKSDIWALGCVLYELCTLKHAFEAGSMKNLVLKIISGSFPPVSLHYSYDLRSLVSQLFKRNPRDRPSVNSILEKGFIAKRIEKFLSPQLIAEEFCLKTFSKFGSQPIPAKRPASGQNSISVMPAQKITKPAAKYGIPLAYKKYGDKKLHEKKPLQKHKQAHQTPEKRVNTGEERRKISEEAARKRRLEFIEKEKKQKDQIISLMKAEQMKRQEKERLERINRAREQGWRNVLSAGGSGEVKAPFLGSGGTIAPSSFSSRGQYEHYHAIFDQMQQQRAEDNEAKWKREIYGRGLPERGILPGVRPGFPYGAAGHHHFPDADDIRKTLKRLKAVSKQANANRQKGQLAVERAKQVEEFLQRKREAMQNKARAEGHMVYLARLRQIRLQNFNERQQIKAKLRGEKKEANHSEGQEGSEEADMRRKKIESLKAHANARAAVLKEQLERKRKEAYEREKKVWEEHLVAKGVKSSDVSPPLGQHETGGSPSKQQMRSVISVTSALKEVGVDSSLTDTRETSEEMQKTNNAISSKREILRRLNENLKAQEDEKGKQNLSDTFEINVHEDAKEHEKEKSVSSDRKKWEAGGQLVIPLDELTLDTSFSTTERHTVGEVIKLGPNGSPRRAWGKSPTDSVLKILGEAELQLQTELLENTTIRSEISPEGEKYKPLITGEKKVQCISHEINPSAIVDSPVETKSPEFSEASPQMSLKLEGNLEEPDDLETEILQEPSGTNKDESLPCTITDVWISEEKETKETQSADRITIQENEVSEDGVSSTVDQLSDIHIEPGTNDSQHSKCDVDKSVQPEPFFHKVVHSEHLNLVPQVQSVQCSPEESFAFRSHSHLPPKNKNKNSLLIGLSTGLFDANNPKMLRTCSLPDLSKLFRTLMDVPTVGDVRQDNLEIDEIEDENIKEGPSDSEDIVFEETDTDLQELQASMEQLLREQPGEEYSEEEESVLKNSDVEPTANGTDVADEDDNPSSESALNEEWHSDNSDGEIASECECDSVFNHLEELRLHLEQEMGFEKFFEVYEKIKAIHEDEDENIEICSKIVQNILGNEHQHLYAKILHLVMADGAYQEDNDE
# Test context: at 0.1 µM
Label condition met for high-side inhibition (at or above 2%) and condition not met for low-side inhibition (below it).

>>> print(df.to_string())
                                    compound        group_label
 0  CC1=C(C(=O)Nc2ccc3[nH]ncc3c2)C(c2ccc(F)cc2)N=C(c2ccc(C(F)(F)F)nc2)N1 (stereo not given)  condition not met
 1  COc1ccc2ncn(-c3cc(O[C@H](C)c4ccccc4C(F)(F)F)c(C(N)=O)s3)c2c1      condition met
 2  COC(=O)Nc1nc2ccc(Oc3ccc(NC(=O)Nc4cc(C(F)(F)F)ccc4F)cc3)cc2s1  condition not met
 3     COc1cccc(Nc2nccc(-c3cnn4ncccc34)n2)c1      condition met
 4  CS(=O)(=O)Nc1ccc(-c2ccc3c(NC(=O)C4CC4)n[nH]c3c2)cc1  condition not met
 5  COc1c(C(N)=O)cc(-c2ccc(Cl)cc2)cc1-c1ccc(S(N)(=O)=O)cc1      condition met
 6  CCOc1ccc2c(-c3ccnc(Nc4cc(OC)cc(C(F)(F)F)c4)n3)cnn2n1  condition not met
 7  NS(=O)(=O)c1cccc(N/C=C2\C(=O)Nc3ccccc32)c1      condition met
 8                 Cn1c(-c2nonc2N)nc2cnccc21  condition not met
 9  CCS(=O)(=O)c1ccc(OC)c(Nc2ncc(-c3cccc(F)c3)o2)c1      condition met
10  CS(=O)(=O)CCNCc1ccoc1-c1ccc2ncnc(Nc3ccc(OCc4ccccc4)cc3)c2c1  condition not met
11    Cc1ccc(-c2cc3c(NC(=O)C4CC4)ncnc3o2)cc1  condition not met
12  CNC(=O)c1ncccc1Nc1nc(Nc2cc3c(cc2OC)CCCN3C(=O)CN(C)C)nc2[nH]ccc12  condition not met
13  c1ccc(-c2n[nH]cc2-c2ccnc(-c3ccc(OCCn4ccnc4)cc3)c2)nc1  condition not met
14  Fc1ccc(Nc2nccc(-c3c(-c4ccc(C(F)(F)F)cc4)nn4ncccc34)n2)cc1F  condition not met
15        FC(F)(F)CNc1nccc(-c2cnn3ncccc23)n1      condition met
16  CC1=C(C(=O)Nc2ccc3[nH]nc(C)c3c2)C(c2ccc(C(F)(F)F)cc2)CC(=O)N1 (stereo not given)  condition not met
17  Cc1nnc(-c2cccc(-c3ccc(C(=O)NCC4CC4)cc3)c2)o1      condition met
18    CCn1c(-c2nonc2N)nc2cncc(C(=O)NCCNC)c21      condition met

====

# Measured target: Tyrosine-protein kinase TXK (Homo sapiens) (UniProt P42681);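 further: value given is the mean percent inhibition of TXK kinase activity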
# Sequence (P42681 whole entry): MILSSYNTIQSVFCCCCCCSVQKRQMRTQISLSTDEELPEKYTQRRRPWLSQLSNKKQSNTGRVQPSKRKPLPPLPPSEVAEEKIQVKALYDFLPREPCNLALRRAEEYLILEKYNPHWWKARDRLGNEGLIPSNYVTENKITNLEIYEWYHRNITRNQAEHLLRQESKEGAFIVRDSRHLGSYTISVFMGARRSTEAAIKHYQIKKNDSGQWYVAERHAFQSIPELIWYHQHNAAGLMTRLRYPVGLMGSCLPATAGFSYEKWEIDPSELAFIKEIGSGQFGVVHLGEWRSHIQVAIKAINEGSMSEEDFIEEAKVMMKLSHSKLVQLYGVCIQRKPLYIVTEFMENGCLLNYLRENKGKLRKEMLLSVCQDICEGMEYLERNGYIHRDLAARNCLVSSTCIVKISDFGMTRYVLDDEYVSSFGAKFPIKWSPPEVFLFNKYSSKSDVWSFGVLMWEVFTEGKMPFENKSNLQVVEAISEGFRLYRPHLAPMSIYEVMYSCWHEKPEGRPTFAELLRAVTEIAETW
# Test context: at 1 µM
Here the recorded inhibition is given for each entry.
Outcome measure: inhibition (%)

>>> df
                           structure_string  outcome_measure  measurement
0  CS(=O)(=O)Nc1ccc(-c2ccc3c(NC(=O)C4CC4)n[nH]c3c2)cc1       inhibition         5.31
1  CCS(=O)(=O)c1ccc(OC)c(Nc2ncc(-c3cccc(F)c3)o2)c1       inhibition           56
2  COc1ccc(-c2nn3ncccc3c2-c2ccnc(Nc3ccc(F)c(F)c3)n2)cc1       inhibition            5
3  COC(=O)Nc1nc2ccc(Oc3ccc(NC(=O)Nc4cc(C(F)(F)F)ccc4F)cc3)cc2s1       inhibition         2.35
4        FC(F)(F)CNc1nccc(-c2cnn3ncccc23)n1       inhibition          1.8
5  Fc1cccc(COc2ccc(Nc3ncncc3C#Cc3ccccc3)cc2Cl)c1       inhibition         3.56
6  CS(=O)(=O)Nc1ccc(-c2cc(-c3ccccc3)cc(C(N)=O)c2N)cc1       inhibition         2.13
7  O=C(O[C@H]1CN[C@H](C#Cc2cc3ncnc(Nc4ccc5c(ccn5Cc5cc(F)ccc5F)c4)c3s2)C1)N1CCOCC1       inhibition         5.25
8  COc1cc(N2CCN(C(C)C)CC2)ccc1Nc1nc(Nc2cccc(F)c2C(=O)O)c2cc[nH]c2n1       inhibition          3.5

====

# Measured target: Tyrosine-protein kinase CSK (Homo sapiens);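 further: value given is the averaged percent inhibition of CSK kinase activity, from the GSK PKIS kinase inhibitor set screening panel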
# Test context: at 0.1 µM
Here the recorded inhibition is given for each entry.
Outcome measure: inhibition (%)

In [3]: df
Out[3]:
                            structure_string                           measured_target  outcome_measure  measurement
 0     COc1cccc(Nc2nccc(-c3cnn4ncccc34)n2)c1  Tyrosine-protein kinase CSK (Homo sapiens)       inhibition         4.74
 1    CCn1c(-c2nonc2N)nc2cncc(C(=O)NCCNC)c21  Tyrosine-protein kinase CSK (Homo sapiens)       inhibition         3.43
 2  CNC(=O)c1ncccc1Nc1nc(Nc2cc3c(cc2OC)CCCN3C(=O)CN(C)C)nc2[nH]ccc12  Tyrosine-protein kinase CSK (Homo sapiens)       inhibition         2.99
 3    c1cnn2ncc(-c3ccnc(NCCCN4CCOCC4)n3)c2c1  Tyrosine-protein kinase CSK (Homo sapiens)       inhibition         5.75
 4  CS(=O)(=O)CCNCc1ccoc1-c1ccc2ncnc(Nc3ccc(OCc4ccccc4)cc3)c2c1  Tyrosine-protein kinase CSK (Homo sapiens)       inhibition         2.96
 5  c1ccc(-c2n[nH]cc2-c2ccnc(-c3ccc(OCCn4ccnc4)cc3)c2)nc1  Tyrosine-protein kinase CSK (Homo sapiens)       inhibition            1
 6  CN(C)CCNC(=O)Nc1ccc(N(C)c2ccnc(Nc3ccc(CS(C)(=O)=O)cc3)n2)cc1  Tyrosine-protein kinase CSK (Homo sapiens)       inhibition         3.68
 7  CCCNc1cccc(-n2ncc3c(N/N=C/c4ccncc4)ncnc32)c1  Tyrosine-protein kinase CSK (Homo sapiens)       inhibition         2.59
 8  CN1CCC(n2cnc(-c3ccc(F)cc3)c2-c2ccnc(NCCO)n2)CC1  Tyrosine-protein kinase CSK (Homo sapiens)       inhibition         7.33
 9  CN(c1ccc(NC(=O)NCCN2CCOCC2)cc1)c1ccnc(Nc2ccc(CS(C)(=O)=O)cc2)n1  Tyrosine-protein kinase CSK (Homo sapiens)       inhibition         3.59
10       COc1cc(Nc2ncc(-c3ccccc3)o2)cc(OC)c1  Tyrosine-protein kinase CSK (Homo sapiens)       inhibition         3.66
11         COc1ccc(Nc2ncc(-c3ccccc3)o2)cc1OC  Tyrosine-protein kinase CSK (Homo sapiens)       inhibition         1.21
12  CCS(=O)(=O)c1ccc(OC)c(Nc2ncc(-c3cccc(F)c3)o2)c1  Tyrosine-protein kinase CSK (Homo sapiens)       inhibition         7.64
13    Cc1ccc(-c2cc3c(NC(=O)C4CC4)ncnc3o2)cc1  Tyrosine-protein kinase CSK (Homo sapiens)       inhibition         2.33
14  CN1CCC(C(=O)Nc2n[nH]c3nc(-c4ccc(O)cc4)c(Br)cc23)CC1  Tyrosine-protein kinase CSK (Homo sapiens)       inhibition        -0.63
15        FC(F)(F)CNc1nccc(-c2cnn3ncccc23)n1  Tyrosine-protein kinase CSK (Homo sapiens)       inhibition         2.81
16  N#Cc1ccc2c(-c3ccnc(NC4CC4)n3)c(-c3ccc(F)cc3)nn2c1  Tyrosine-protein kinase CSK (Homo sapiens)       inhibition         1.65
17  O=C(O[C@H]1CN[C@H](C#Cc2cc3ncnc(Nc4ccc(OCc5cccc(F)c5)c(Cl)c4)c3s2)C1)N1CCOCC1  Tyrosine-protein kinase CSK (Homo sapiens)       inhibition         7.67
18  COC(=O)Nc1nc2ccc(Oc3ccc(NC(=O)Nc4cc(C(F)(F)F)ccc4F)cc3)cc2s1  Tyrosine-protein kinase CSK (Homo sapiens)       inhibition         4.36
19  CCN1CCC(C(=O)Nc2n[nH]c3nnc(-c4cccc(F)c4F)cc23)CC1  Tyrosine-protein kinase CSK (Homo sapiens)       inhibition         2.49
20  CNC(=O)c1sc(-n2cnc3cc(OC)c(OC)cc32)cc1OCc1ccccc1C(F)(F)F  Tyrosine-protein kinase CSK (Homo sapiens)       inhibition         3.42
